meta.source: ChEMBL document CHEMBL5584357

# Tested on: Escherichia coli
# measurementNotes: Antibacterial activity against Escherichia coli ATCC 25922 incubated for 16 to 18 hrs by broth microdilution method
# Assay type: functional
# setupConditions: time 16-18 hrs
API: label(entry) gives criterion met if the entry's MIC is strictly smaller than 50 µM; on equality or larger values it gives criterion not met.

chemicalString	classification
O=C(O)c1cn(C2CC2)c2cc(N3CCNCC3)c(F)cc2c1=O	criterion met
CN(C)[C@@H]1C(O)=C(C(N)=O)C(=O)[C@@]2(O)C(O)=C3C(=O)c4c(O)cccc4[C@@](C)(O)[C@H]3C[C@@H]12	criterion met
COC(=O)[C@H](CCCc1cc2ccc3ccc4ccc5ccc1c1c5c4c3c21)NC(=O)[C@@H](N)CCCCN	criterion met
COC(=O)[C@H](Cc1cc2ccc3ccc4ccc5ccc1c1c5c4c3c21)NC(=O)[C@H](N)CCCCN	criterion not met
COC(=O)[C@H](CCCNC(=N)NS(=O)(=O)c1ccc(C)cc1)NC(=O)[C@@H](N)Cc1cc2ccc3ccc4ccc5ccc1c1c5c4c3c21	criterion not met
